Where these numbers come from: patent US8569281B2

- TESTED_SYSTEM: LRRK2 (Homo sapiens (Human), UniProt Q5S007)
- Sequence (Q5S007 whole entry G2019S): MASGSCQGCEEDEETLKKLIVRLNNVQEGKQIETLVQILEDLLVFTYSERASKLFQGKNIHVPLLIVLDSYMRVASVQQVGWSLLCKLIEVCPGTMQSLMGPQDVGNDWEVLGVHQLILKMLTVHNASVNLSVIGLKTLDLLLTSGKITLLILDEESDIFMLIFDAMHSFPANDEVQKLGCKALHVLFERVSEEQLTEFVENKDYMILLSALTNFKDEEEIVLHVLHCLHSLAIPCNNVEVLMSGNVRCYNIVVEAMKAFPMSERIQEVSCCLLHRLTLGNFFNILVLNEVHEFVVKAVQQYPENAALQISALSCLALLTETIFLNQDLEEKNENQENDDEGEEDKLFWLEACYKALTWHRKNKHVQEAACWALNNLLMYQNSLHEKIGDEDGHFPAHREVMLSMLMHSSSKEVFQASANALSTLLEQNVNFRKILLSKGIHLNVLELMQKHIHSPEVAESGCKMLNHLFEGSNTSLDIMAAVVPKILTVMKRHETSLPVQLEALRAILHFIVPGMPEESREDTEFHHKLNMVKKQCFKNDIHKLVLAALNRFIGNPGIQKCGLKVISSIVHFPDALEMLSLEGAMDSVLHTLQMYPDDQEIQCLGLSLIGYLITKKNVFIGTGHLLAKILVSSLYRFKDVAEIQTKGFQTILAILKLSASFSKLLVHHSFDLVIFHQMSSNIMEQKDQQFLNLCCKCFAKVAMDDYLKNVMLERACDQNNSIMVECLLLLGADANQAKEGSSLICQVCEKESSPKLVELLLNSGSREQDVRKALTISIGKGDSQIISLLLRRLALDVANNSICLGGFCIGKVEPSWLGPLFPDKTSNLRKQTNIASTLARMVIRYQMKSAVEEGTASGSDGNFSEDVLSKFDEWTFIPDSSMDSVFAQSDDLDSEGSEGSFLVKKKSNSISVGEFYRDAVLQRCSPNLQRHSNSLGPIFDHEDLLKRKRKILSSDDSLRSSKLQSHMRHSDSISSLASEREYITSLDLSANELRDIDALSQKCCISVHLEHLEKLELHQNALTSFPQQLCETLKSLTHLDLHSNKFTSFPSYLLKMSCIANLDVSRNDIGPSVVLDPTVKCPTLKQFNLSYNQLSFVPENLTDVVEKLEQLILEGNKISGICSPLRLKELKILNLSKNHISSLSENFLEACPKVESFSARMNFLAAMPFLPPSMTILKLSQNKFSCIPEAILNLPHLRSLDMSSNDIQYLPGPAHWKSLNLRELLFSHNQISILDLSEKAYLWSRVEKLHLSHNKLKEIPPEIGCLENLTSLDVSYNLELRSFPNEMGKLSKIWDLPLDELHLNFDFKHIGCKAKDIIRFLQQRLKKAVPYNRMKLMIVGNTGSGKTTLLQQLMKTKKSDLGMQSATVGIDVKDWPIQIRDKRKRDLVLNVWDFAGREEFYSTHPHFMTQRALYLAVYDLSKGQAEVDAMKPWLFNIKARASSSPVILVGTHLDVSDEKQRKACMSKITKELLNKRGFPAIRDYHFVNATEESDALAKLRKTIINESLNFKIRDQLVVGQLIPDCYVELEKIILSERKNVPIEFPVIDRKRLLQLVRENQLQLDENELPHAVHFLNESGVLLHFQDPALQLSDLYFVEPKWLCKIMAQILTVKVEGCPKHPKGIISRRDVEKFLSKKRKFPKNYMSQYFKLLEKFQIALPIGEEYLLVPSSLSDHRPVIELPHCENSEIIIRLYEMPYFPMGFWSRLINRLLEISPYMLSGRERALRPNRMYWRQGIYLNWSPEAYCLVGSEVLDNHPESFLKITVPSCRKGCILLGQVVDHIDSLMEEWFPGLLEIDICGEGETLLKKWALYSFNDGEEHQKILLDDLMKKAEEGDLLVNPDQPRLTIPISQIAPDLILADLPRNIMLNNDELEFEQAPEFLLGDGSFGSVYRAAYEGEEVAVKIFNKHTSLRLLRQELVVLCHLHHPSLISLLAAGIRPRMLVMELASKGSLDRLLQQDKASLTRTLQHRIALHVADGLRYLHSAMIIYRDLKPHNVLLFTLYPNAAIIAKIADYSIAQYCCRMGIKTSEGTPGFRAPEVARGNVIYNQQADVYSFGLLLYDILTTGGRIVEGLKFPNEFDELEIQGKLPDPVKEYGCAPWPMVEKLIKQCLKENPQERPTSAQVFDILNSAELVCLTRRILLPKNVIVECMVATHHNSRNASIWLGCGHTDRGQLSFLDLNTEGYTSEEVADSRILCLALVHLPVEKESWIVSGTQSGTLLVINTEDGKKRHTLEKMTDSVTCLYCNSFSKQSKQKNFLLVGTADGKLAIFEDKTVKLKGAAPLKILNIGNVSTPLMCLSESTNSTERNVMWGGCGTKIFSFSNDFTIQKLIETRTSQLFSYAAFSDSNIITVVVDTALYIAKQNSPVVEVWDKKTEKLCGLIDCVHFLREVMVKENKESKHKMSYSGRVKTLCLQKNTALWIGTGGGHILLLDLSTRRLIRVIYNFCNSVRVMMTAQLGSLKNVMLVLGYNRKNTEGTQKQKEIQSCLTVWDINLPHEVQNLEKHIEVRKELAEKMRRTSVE
- PROTOCOL_DETAILS: In Vitro LRRK2 Assay (LabChip 3000, fluorescently-labeled peptide substrate)
- Assay type: biochemical
- EXPERIMENTAL_SETUP: ATP 130 μM, substrate 1 μM, 2 hours, ambient temperature; LRRK2 variant not given; read-out: Ki (μM), affinity values for LRRK2
REPORTED_METRIC: Ki
Express your answer as a number followed by its unit.

Study these solved cases before continuing.
[
  {
    "COMPOUND": "Cc1cc(-c2n[nH]c3ccnc(OC4CCOCC4)c23)cc(C)n1",
    "REPORTED_METRIC": "Ki",
    "OBS_VALUE": "0.005 µM"
  },
  {
    "COMPOUND": "COc1nccc2[nH]nc(-c3ccnc(C(F)(F)F)c3)c12",
    "REPORTED_METRIC": "Ki",
    "OBS_VALUE": "0.075 µM"
  },
  {
    "COMPOUND": "c1cc(-c2n[nH]c3ccnc(OC4CCOCC4)c23)cc(-c2cn[nH]c2)n1",
    "REPORTED_METRIC": "Ki",
    "OBS_VALUE": "0.012 µM"
  }
]

# Ki lookup, item `CC(=O)Nc1ccccc1-c1cc(-c2n[nH]c3ccnc(OC4CCOCC4)c23)ccn1`
0.066 µM

Next compound: `CC(C)Oc1nccc2[nH]nc(-c3ccnc(C(=O)N4C[C@@H]5C[C@H]4CO5)c3)c12`
0.384 µM

Next compound: `CC(C)Oc1nccc2[nH]nc(-c3cc(C(=O)N(C)C)n(C(C)C)c3)c12`
0.018 µM

Next compound: `FC(F)(F)Cn1cc(-c2n[nH]c3ccnc(OC4CCOCC4)c23)cn1`
0.006 µM

Next compound: `Cn1cc(/C=C/c2n[nH]c3ccnc(OC4CCCCC4)c23)cn1`
0.0003 µM

Next compound: `Cn1ncc2cc(-c3n[nH]c4ccnc(OC5CCOCC5)c34)ccc21`
0.013 µM

Next compound: `O=C1OCCN1CCOc1nccc2[nH]nc(-c3ccnc(N4CCOCC4)c3)c12`
0.354 µM

Next compound: `c1cc2[nH]nc(-c3cnn(CC4CCOCC4)c3)c2c(OC2CCOCC2)n1`
0.011 µM

Next compound: `CN(C)C(=O)c1cccc(-c2cc(-c3n[nH]c4ccnc(OC5CCOCC5)c34)ccn2)c1`
0.018 µM

Next compound: `COc1nccc2n[nH]c(-c3cccc(S(C)(=O)=O)c3)c12`
0.045 µM

Next compound: COc1nccc2[nH]nc(-c3cnn(C4CCOC4)c3)c12 (centres unmarked)
0.023 µM

Next compound: `CC(C)n1cc(-c2n[nH]c3ccnc(OC4CCOCC4)c23)cc1C(=O)N1CCC1`
0.008 µM

Next compound: `COc1nccc2[nH]nc(-c3ccnc(N4C[C@@H]5C[C@H]4CO5)c3)c12`
0.051 µM

Next compound: `CN1CCc2c(-c3n[nH]c4ccnc(OC5CCOCC5)c34)cccc21`
0.495 µM

Next compound: `COc1cc(-c2n[nH]c3ccnc(OC)c23)ccn1`
0.08 µM

Next compound: `N#Cc1cncc(-c2n[nH]c3ccnc(OC4CCOCC4)c23)c1`
0.172 µM

Next compound: `c1cc(Nc2[nH]nc3ccnc(OC4CCOCC4)c23)ccn1`
0.165 µM

Next compound: `CC(C)n1cc2ccc(-c3n[nH]c4ccnc(OC5CCOCC5)c34)cc2n1`
0.032 µM

* * *

- TESTED_SYSTEM: LRRK2 (Homo sapiens (Human), UniProt Q5S007)
- PROTOCOL_DETAILS: In Vitro LRRK2 Assay (LabChip 3000, fluorescently-labeled peptide substrate)
- Type: biochemical
- EXPERIMENTAL_SETUP: ATP 130 μM, substrate 1 μM, 2 hours, ambient temperature; LRRK2 variant not given; read-out: Ki (μM), affinity values for LRRK2
REPORTED_METRIC: Ki (µM)
Please state the figure in µM; there is no need to write the unit.

Study these solved cases before continuing.
[
  {
    "COMPOUND": "CC[C@@H](C)Oc1nccc2[nH]nc(C3CC3)c12",
    "Ki (µM)": 0.078
  },
  {
    "COMPOUND": "c1cc2[nH]nc(-c3ccc4cn[nH]c4c3)c2c(OC2CCOCC2)n1",
    "Ki (µM)": 0.013
  },
  {
    "COMPOUND": "COc1nccc2[nH]nc(-c3cnn(CC4(C)COC4)c3)c12",
    "Ki (µM)": 0.108
  },
  {
    "COMPOUND": "c1cc(CN2CCOCC2)cc(-c2[nH]nc3ccnc(OC4CCOCC4)c23)c1",
    "Ki (µM)": 0.107
  },
  {
    "COMPOUND": "CC(C)n1cc(-c2n[nH]c3ccnc(OC(C)C(F)(F)F)c23)cn1 (stereo not drawn)",
    "Ki (µM)": 0.013
  }
]

# Ki lookup, item `Cn1cnc2cc(-c3n[nH]c4ccnc(OC5CCOCC5)c34)ccc21`
0.036

Next compound: `COc1nccc2[nH]nc(-c3ccnc(N4[C@@H]5CC[C@H]4COC5)c3)c12`
0.08

Next compound: `CC(C)Oc1nccc2[nH]nc(-c3cc(C(=O)N4CCCC4)n(C(C)C)c3)c12`
0.006

Next compound: `CC(C)n1cc(Nc2[nH]nc3ccnc(OC4CCOCC4)c23)cn1`
0.03

Next compound: `CN(C)C(=O)c1ccc(-c2cc(-c3n[nH]c4ccnc(OC5CCOCC5)c34)ccn2)cc1`
0.009

Next compound: c1cc2[nH]nc(-c3ccc4c(c3)ncn4C3CCOC3)c2c(OC2CCOCC2)n1 (stereo not drawn)
0.01

Next compound: `CC(C)Oc1nccc2[nH]nc(-c3cc(C(=O)N4CCOCC4)n(C(C)C)c3)c12`
0.019

* * *

- TESTED_SYSTEM: UniProt Q5S007
- PROTOCOL_DETAILS: In Vitro LRRK2 Assay (LabChip 3000, fluorescently-labeled peptide substrate)
- Type: biochemical
- EXPERIMENTAL_SETUP: ATP 130 μM, substrate 1 μM, 2 hours, ambient temperature; LRRK2 variant not given; read-out: Ki (μM), affinity values for LRRK2
- Procedure: This assay was used to determine a compound's potency in inhibiting activity of LRRK2 by determining, Kiapp, IC50, or percent inhibition values. […] The relative amounts of each were quantitated by fluorescence intensity. LRRK2 Ki was determined according to the equation: Y=V0*(1−((x+Ki*(1+S/Km)+Et)/(2*Et)−(((x+Ki*(1+S/Km)+Et)^2−(4*Et*x))^0.5)/(2*Et))). […] The plate was incubated for 2 hours in the dark. […] Results were read on the LabChip 3000. […]
Simple rule here: Ki less than 0.01 µM is Satisfied, otherwise Not satisfied.

Dear colleague, could you confirm whether Ki of `CC(C)n1cc(-c2n[nH]c3ccnc(OC4CCOCC4)c23)cc1C(=O)N(C)C` falls below 0.01 µM? Thanks.
Not satisfied

Next molecule: `FC(F)(F)COc1nccc2[nH]nc(-c3ccnc(N4CCOCC4)c3)c12`
Not satisfied

Next molecule: `c1cc(-c2n[nH]c3ccnc(OC4CCOCC4)c23)cc(N2CCCC2)n1`
Satisfied

* * *

- TESTED_SYSTEM: LRRK2 (Homo sapiens (Human))
- PROTOCOL_DETAILS: In Vitro LRRK2 Assay (LabChip 3000, fluorescently-labeled peptide substrate)
- Format: biochemical
- EXPERIMENTAL_SETUP: ATP 130 μM, substrate 1 μM, 2 hours, ambient temperature; LRRK2 variant not given; read-out: Ki (μM), affinity values for LRRK2
REPORTED_METRIC: Ki
Express your answer as a number followed by its unit.

# Ki lookup, item `CCn1cc(-c2cc(-c3n[nH]c4ccnc(OC5CCOCC5)c34)ccn2)cn1`
0.012 µM

Next compound: `COc1nccc2[nH]nc(-c3cnn(C4CCOCC4)c3)c12`
0.033 µM

* * *

- TESTED_SYSTEM: LRRK2 (Homo sapiens (Human), UniProt Q5S007)
- PROTOCOL_DETAILS: In Vitro LRRK2 Assay (LabChip 3000, fluorescently-labeled peptide substrate)
- Assay type: biochemical
- EXPERIMENTAL_SETUP: ATP 130 μM, substrate 1 μM, 2 hours, ambient temperature; LRRK2 variant not given; read-out: Ki (μM), affinity values for LRRK2
param class (str): category from Ki; see ranges lo: < 0.02 µM; mid: ≥ 0.02 µM and < 0.03 µM; hi: ≥ 0.03 µM

[
  {
    "COMPOUND": "c1cc2[nH]nc(-c3ccc4nc[nH]c4c3)c2c(OC2CCOCC2)n1",
    "CLASS_LABEL": "lo"
  },
  {
    "COMPOUND": "O=C(c1cc(-c2n[nH]c3ccnc(OC4CCOCC4)c23)ccn1)N1CCOCC1",
    "CLASS_LABEL": "hi"
  },
  {
    "COMPOUND": "O=C(NC1CC1)c1cccc(-c2[nH]nc3ccnc(OC4CCOCC4)c23)c1",
    "CLASS_LABEL": "mid"
  },
  {
    "COMPOUND": "COc1nccc2[nH]nc(-c3ccnc(N4CCOCC4)c3)c12",
    "CLASS_LABEL": "mid"
  },
  {
    "COMPOUND": "CC1CCCN(c2cc(-c3n[nH]c4ccnc(OC5CCOCC5)c34)ccn2)C1 (centres unmarked)",
    "CLASS_LABEL": "lo"
  },
  {
    "COMPOUND": "CS(=O)(=O)c1cccc(-c2[nH]nc3ccnc(OC4CCOCC4)c23)c1",
    "CLASS_LABEL": "mid"
  },
  {
    "COMPOUND": "c1ncc(-c2cc(-c3n[nH]c4ccnc(OC5CCOCC5)c34)ccn2)cn1",
    "CLASS_LABEL": "hi"
  },
  {
    "COMPOUND": "CC(=O)Nc1ccc(-c2cc(-c3n[nH]c4ccnc(OC5CCOCC5)c34)ccn2)cc1",
    "CLASS_LABEL": "lo"
  },
  {
    "COMPOUND": "O=C(CCc1[nH]nc2ccnc(OC3CCCCC3)c12)N1CCC[C@H](c2ccccc2)C1",
    "CLASS_LABEL": "lo"
  },
  {
    "COMPOUND": "COc1nccc2[nH]nc(-c3ccnc(N4C[C@@H](C)O[C@@H](C)C4)c3)c12",
    "CLASS_LABEL": "mid"
  }
]

Tag the class for `N#Cc1ccc(-c2cc(-c3n[nH]c4ccnc(OC5CCOCC5)c34)ccn2)cc1`
mid

Next compound: CC(Oc1nccc2[nH]nc(-c3ccnc(N4CCOCC4)c3)c12)C(F)(F)F (centres unmarked)
lo

Next compound: `c1cc(-c2n[nH]c3ccnc(OC4CCOCC4)c23)nc(N2CCOCC2)n1`
hi

Next compound: `COc1cc(-c2n[nH]c3ccnc(OC4CCOCC4)c23)ccn1`
mid
